Biological target: human polyclonal IgG (human)
Experiment: SPR (Biacore), His-tagged fusion protein captured on Ni-NTA chip, human IgG injected
Each entry below carries its recorded Kd.
# number only, unit nM dropped from output

Here is how some binders turned out for Kd.
Annotate the binder fusion protein PL3 (designed binder) ATIRANLIYADGRTQTAEFRGTFEEATAEAYRYADLLPRENGRYTVDVADRGYTLNIRFAPGATIRANLIYADGRTQTAEFRGTFEEATAEAYRYADLLPRENGRYTVDVADRGYTLNIRFAPGATIRANLIYADGRTQTAEFRGTFEEATAEAYRYADLLPRENGRYTVDVADRGYTLNIRFAGGGGGCADDDDDDHHHHHH with its measured Kd.
0.788

Annotate the binder fusion protein PG1 (designed binder) AYRLILNGRTLRGETTTEAVDAATAERVFRQYANDNGVDGEWTYDDATRTFTVTERPEVIDASELTPAVTGGGGCADDDDDDHHHHHH with its measured Kd.
0.384

Annotate the binder fusion protein PL1 (designed binder) ATIRANLIYADGRTQTAEFRGTFEEATAEAYRYADLLARENGRYTVDVADRGYTLNIRFAGGGGGCADDDDDDHHHHHH with its measured Kd.
2.06

Annotate the binder fusion protein PG3 (designed binder) AYRLILNGRTLRGETTTEAVDAATAERVFRQYANDNGVDGEWTYDDATRTFTVTERPEVIDASELTPAVTPGAYRLILNGRTLRGETTTEAVDAATAERVFRQYANDNGVDGEWTYDDATRTFTVTERPEVIDASELTPAVTPGAYRLILNGRTLRGETTTEAVDAATAERVFRQYANDNGVDGEWTYDDATRTFTVTERPEVIDASELTPAVTGGGGCADDDDDDHHHHHH with its measured Kd.
0.068

Annotate the binder fusion protein PL2 (designed binder) ATIRANLIYADGRTQTAEFRGTFEEATAEAYRYADLLPRENGRYTVDVADRGYTLNIRFAPGATIRANLIYADGRTQTAEFRGTFEEATAEAYRYADLLPRENGRYTVDVADRGYTLNIRFAGGGGGCADDDDDDHHHHHH with its measured Kd.
1.34

Next up:
Annotate the binder fusion protein PG2 (designed binder) AYRLILNGRTLRGETTTEAVDAATAERVFRQYANDNGVDGEWTYDDATRTFTVTERPEVIDASELTPAVTPGAYRLILNGRTLRGETTTEAVDAATAERVFRQYANDNGVDGEWTYDDATRTFTVTERPEVIDASELTPAVTGGGGCADDDDDDHHHHHH with its measured Kd.
0.115

The measured values listed here are drawn from patent US20100130721A1.
